Molecular target: T1, human B7-H4 (purified monomeric recombinant human protein, ACRO biosystems) (human, UniProt Q7Z7D3 29-258, limits assumed, chemically biotinylated (EZ-Link NHS-LC-Biotin) in the yeast display and competition experiments; non-biotinylated in SPR)
T1 construct: Bought recombinant monomeric protein; also called B7x; B7S1
T1 sequence: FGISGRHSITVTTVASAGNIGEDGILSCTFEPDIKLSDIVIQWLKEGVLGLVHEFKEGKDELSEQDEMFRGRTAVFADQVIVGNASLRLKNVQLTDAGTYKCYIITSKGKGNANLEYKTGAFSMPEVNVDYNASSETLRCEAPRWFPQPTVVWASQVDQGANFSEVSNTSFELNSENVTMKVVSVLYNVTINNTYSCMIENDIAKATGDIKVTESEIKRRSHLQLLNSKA
Assay: SPR (Carterra LSA); scFv-Fc captured on anti-human IgG Fc, antigen injected
endpoint name: koff (s⁻¹)
Note: unit s⁻¹ is implicit; provide only the numeric part.

# binder, koff, s⁻¹
records = [
    ("A12 scFv-Fc (scFv, V domains shown, Tested as scFv-Fc fusion (human IgG1 Fc, vector pDNL9) in crude yeast supernatant; Combo 2 library) VH: EVQLVESGGGVVQPGRSLRLSCAASGFTFDNRAMNWVRQAPGKGLEWVSAISSSGSTMYYADSVKGRFTISRDNSKNTLYLQMNSLRAEDTAVYYCARKRWYGMDVWGQGTTVTVSS VL: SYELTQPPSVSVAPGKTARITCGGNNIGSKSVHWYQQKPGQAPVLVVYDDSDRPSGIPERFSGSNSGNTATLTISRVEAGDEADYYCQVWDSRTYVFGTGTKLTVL", "3.2e-05"),
]

Read the next record carefully.
Consider B04 scFv-Fc (scFv, V domains shown, Tested as scFv-Fc fusion (human IgG1 Fc, vector pDNL9) in crude yeast supernatant; Combo 1 library) VH: EVQLVESGGGVVQPGRSLRLSCAASGFSFSSRAMNWVRQAPGKGLEWVSAVSGSGSGTYYADSVKGRFTISRDNSKNTLYLQMNSLRAEDTAVYYCARKRWYGMDVWGQGTTVTVSS VL: SYELTQPPSVSVAPGKTARITCGGNNIGLKSVHWYQQKPGQAPVLVVYDDSDRPSGIPERFSGSNSGNTATLTISRVEAGDEADYYCQVWDRGMIFGTGTKLTVL . Its measured koff is 2.7e-05
